Cited source: the kinase profiling compilation of Christmann-Franck et al. (2016)

# Measured Target: HCK (human) (UniProt P08631)
# Sequence (P08631 whole entry, looked up): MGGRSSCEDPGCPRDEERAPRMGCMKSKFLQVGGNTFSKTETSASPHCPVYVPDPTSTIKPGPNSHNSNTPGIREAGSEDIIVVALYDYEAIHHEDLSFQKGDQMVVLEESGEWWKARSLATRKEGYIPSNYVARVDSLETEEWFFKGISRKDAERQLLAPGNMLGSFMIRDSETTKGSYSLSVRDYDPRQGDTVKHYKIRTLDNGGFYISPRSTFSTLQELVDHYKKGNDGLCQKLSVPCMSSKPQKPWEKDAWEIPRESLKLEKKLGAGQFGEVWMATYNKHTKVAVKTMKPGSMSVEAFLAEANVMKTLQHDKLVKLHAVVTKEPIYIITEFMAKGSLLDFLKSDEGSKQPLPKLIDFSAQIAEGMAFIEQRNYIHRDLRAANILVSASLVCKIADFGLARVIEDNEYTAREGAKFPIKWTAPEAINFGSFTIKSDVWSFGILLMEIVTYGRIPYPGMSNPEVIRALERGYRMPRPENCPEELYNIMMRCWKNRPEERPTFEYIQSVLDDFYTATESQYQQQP
# Assay Name: radiometric filter-binding kinase assay, Kinase HotSpot
# Measurement Setup: compound 0.5 µM; ATP 10 µM
Assign residual activity to each entry below.
Use % as the unit, but write only the number.

The molecule `COc1cc2ncnc(N3CCN(C(=O)Nc4ccc(Oc5ccccc5)cc4)CC3)c2cc1OC` , tested on HCK (human) (UniProt P08631), showed residual activity of 91.7

Reading of residual activity for `CCn1cnc2c(Nc3cccc(Cl)c3)nc(N[C@@H]3CCCC[C@@H]3N)nc21` with HCK (human) (UniProt P08631): 69.6

Query `O=C1NC(=O)C(c2c[nH]c3ccccc23)=C1c1c[nH]c2ccccc12` on HCK (human) (UniProt P08631); residual activity returned: 96

HCK (human) (UniProt P08631) assay, molecule `Cn1cnc2cc3c(Nc4cccc(Br)c4)ncnc3cc21` , recorded residual activity = 70.4

Measured residual activity (HCK (human) (UniProt P08631)), entry `CN(C)C[C@H]1CCn2c(c(C3=C(c4cn(C)c5ccccc45)C(=O)NC3=O)c3ccccc32)C1` : 95.3

I looked up `CCN(CC)CCCCN1c2ccccc2Oc2ccc(Cl)cc21` and its residual activity for HCK (human) (UniProt P08631) was 105

`CC(C)c1nn(-c2c(Cl)cccc2Cl)c2nc(Cc3ccc(OCCO)cc3)nc(O)c12` on HCK (human) (UniProt P08631) gives residual activity = 94.7

// returns residual activity for `CN([C@@H](Cc1ccc(OS(=O)(=O)c2cccc3cnccc23)cc1)C(=O)N1CCN(c2ccccc2)CC1)S(=O)(=O)c1cccc2cnccc12` with HCK (human) (UniProt P08631); value = 97.4

* * *

Give measured residual activity for each item. Keep answers brief.
# Measured Target: FER (human) (UniProt P16591)
# Sequence (P16591 whole entry, looked up): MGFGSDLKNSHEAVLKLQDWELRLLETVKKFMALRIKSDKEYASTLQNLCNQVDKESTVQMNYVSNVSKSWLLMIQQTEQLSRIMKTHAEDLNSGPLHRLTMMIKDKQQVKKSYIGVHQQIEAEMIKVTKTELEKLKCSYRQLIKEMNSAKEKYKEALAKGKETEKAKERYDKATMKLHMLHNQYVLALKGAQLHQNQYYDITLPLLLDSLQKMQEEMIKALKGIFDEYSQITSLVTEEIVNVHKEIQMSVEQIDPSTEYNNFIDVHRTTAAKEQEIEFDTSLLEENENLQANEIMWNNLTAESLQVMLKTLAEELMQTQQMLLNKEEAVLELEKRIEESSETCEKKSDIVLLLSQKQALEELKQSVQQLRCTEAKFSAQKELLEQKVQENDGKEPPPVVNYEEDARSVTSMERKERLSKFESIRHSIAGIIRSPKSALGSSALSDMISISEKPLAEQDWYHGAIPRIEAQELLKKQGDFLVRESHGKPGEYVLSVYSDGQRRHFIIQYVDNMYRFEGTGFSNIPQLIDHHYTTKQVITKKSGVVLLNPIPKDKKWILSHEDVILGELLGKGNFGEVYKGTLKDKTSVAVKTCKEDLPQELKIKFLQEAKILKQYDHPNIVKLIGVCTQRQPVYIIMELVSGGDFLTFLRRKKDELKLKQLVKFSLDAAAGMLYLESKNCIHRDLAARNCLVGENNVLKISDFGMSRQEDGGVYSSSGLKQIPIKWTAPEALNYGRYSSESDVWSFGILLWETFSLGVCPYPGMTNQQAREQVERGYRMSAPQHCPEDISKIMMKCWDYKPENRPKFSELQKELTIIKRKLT
# Assay Name: radiometric filter-binding kinase assay, Kinase HotSpot
# Measurement Setup: compound 0.5 µM; ATP 10 µM
Answer in %, number only, no unit symbol.

Kindly note the recorded residual activity for `CN(C)C[C@H]1CCn2c(c(C3=C(c4cn(C)c5ccccc45)C(=O)NC3=O)c3ccccc32)C1` , which is 69.2

Record `O=C(Nc1cccc(Nc2cc(Nc3cccc(C(F)(F)F)c3)ncn2)c1)C1CC1` , field residual activity: 102

residual activity reading for `COc1ccc(OC)c2c(=S)c3ccccc3[nH]c12` : 84

Short answer for `O=C1NC(=O)C(c2cn(CCCO)c3ncccc23)=C1c1cnccn1` : residual activity was 99.2

The compound listed as O=C1Nc2ccccc2/C1=C1/Nc2ccccc2/C1=N\OCCC(O)CO (stereo not drawn) has a reported residual activity of 28.8

`COc1cc2ncc(-c3ccccc3)nc2cc1OC` yielded residual activity of 80

Notebook: `O=C1NC(=O)/C(=C\c2ccc3nccnc3c2)S1` , residual activity read as 96.2

What the record says about `COc1ccc(CNC(=O)Nc2ncc([N+](=O)[O-])s2)cc1` : residual activity is 101

Sure, the documented residual activity for `Nc1nccc(-c2c(-c3ccc(F)cc3)ncn2C2CCNCC2)n1` is 98.3

Input `CC(C)[C@H](CO)Nc1nc(Nc2cc(N)cc(Cl)c2)c2ncn(C(C)C)c2n1` . Output residual activity: 54.9

Entry `CN([C@@H](Cc1ccc(OS(=O)(=O)c2cccc3cnccc23)cc1)C(=O)N1CCN(c2ccccc2)CC1)S(=O)(=O)c1cccc2cnccc12` ; residual activity = 100

// field: residual activity; key: `Cn1nc2c3c(cccc31)C(=O)c1ccccc1-2` ; value = 99.2

# compound `O=C1NC(=O)C(c2c[nH]c3ccccc23)=C1c1c[nH]c2ccccc12` ; its residual activity = 83.5

What the record says about `Cc1nc2cc3nc(-c4cccs4)cnc3cc2n1C` : residual activity is 104

So, `Cn1cnc2cc3c(Nc4cccc(Br)c4)ncnc3cc21` ? Its residual activity was 90.6

residual activity reported for this compound `CCn1cnc2c(Nc3cccc(Cl)c3)nc(N[C@@H]3CCCC[C@@H]3N)nc21` : 86.8

Entry `CC(=O)O/N=C1\C(=C2\C(=O)Nc3cc(Br)ccc32)Nc2ccccc21` , residual activity reported as 86.4

Quick note, residual activity for `O=C(CCCc1ccc(-c2ccccc2F)cc1)Nc1ccc(O)cc1` landed at 103

* * *

# Measured Target: UniProtKB Q13043
# Sequence (Q13043 whole entry, looked up): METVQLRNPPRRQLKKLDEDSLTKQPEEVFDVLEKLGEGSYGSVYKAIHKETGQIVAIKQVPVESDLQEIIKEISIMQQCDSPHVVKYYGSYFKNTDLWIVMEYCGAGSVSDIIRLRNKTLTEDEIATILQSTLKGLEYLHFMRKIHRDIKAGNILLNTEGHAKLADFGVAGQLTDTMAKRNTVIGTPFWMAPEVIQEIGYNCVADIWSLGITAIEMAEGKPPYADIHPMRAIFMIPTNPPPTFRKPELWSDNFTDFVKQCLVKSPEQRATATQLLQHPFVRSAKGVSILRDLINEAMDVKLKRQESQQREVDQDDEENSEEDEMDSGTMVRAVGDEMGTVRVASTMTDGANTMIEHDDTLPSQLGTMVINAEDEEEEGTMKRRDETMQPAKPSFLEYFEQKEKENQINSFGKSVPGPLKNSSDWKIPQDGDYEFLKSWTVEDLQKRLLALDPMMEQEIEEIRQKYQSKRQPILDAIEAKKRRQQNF
# Assay Name: radiometric filter-binding kinase assay, Kinase HotSpot
# Measurement Setup: compound 0.5 µM; ATP 10 µM
Hi, to clarify the labels: class 1 covers residual activity from 80% upward, class 0 covers anything below 80%.

Task: Tell me whether residual activity is at least 80% here: `Cn1sc(=O)n(Cc2ccccc2)c1=O`
Output: class 1

Task: hey, is residual activity for this one >= 80%? `O=C1NC(=O)C(c2cn(CCCO)c3ncccc23)=C1c1cnccn1`
Output: class 1

Task: Please check the record `Nc1nnc2[nH]c3ccccc3nc1-2` and state if its residual activity is at or above 80%.
Output: class 1

Task: Decide: is the reported value of residual activity for `O=C(O)/C=C/c1cc(Br)c(Br)c(Br)c1Br` equal to or greater than 80%?
Output: class 1

Task: Does the molecule `COc1cc2ncnc(N3CCN(C(=O)Nc4ccc(Oc5ccccc5)cc4)CC3)c2cc1OC` have recorded residual activity that is 80% or more?
Output: class 1

Task: Say whether `COc1cc2ncc(-c3ccccc3)nc2cc1OC` shows residual activity of 80% or more.
Output: class 1

Task: Entry `CCN(CC)CCCCN1c2ccccc2Oc2ccc(Cl)cc21` : is its residual activity no less than 80%?
Output: class 1

Task: # bool: residual activity of `CC(C)[C@H](CO)Nc1nc(Nc2cc(N)cc(Cl)c2)c2ncn(C(C)C)c2n1` >= 80%
Output: class 0

Task: Test whether the molecule `CCn1cnc2c(Nc3cccc(Cl)c3)nc(N[C@@H]3CCCC[C@@H]3N)nc21` records residual activity of 80% or higher.
Output: class 1

Task: Decide: is the reported value of residual activity for O=C1Nc2ccccc2/C1=C1/Nc2ccccc2/C1=N\OCCC(O)CO (stereo unspecified) equal to or greater than 80%?
Output: class 0

Task: Decide: residual activity of `O=C1NC(=O)C(c2c[nH]c3ccccc23)=C1c1c[nH]c2ccccc12` >= 80%?
Output: class 0

Task: Is residual activity for `COc1ccc(OC)c2c(=S)c3ccccc3[nH]c12` at or above 80%?
Output: class 1

Task: // inclusive: residual activity at least 80%? input: `CC(C)c1nn(-c2c(Cl)cccc2Cl)c2nc(Cc3ccc(OCCO)cc3)nc(O)c12`
Output: class 1

Task: Answer whether residual activity of `Cn1cnc2cc3c(Nc4cccc(Br)c4)ncnc3cc21` is greater than or equal to 80%.
Output: class 1

Task: Is residual activity for `CC(=O)O/N=C1\C(=C2\C(=O)Nc3cc(Br)ccc32)Nc2ccccc21` at or above 80%?
Output: class 0

Task: Could you verify whether the entry `Nc1nccc(-c2c(-c3ccc(F)cc3)ncn2C2CCNCC2)n1` shows residual activity of no less than 80%?
Output: class 1

Task: Confirm if residual activity reported for the molecule `O=C(CCCc1ccc(-c2ccccc2F)cc1)Nc1ccc(O)cc1` is 80% or above.
Output: class 1

Task: Is residual activity at least 80%? Consider `O=C1NC(=O)/C(=C\c2ccc3nccnc3c2)S1`
Output: class 1

Task: Hi team, for `O=C1Nc2ccccc2/C1=C1\Nc2ccccc2\C1=N/O` , is the recorded residual activity at or above 80%?
Output: class 0

* * *

Would you mind telling me the reported residual activity of each entry?
# Measured Target: HIPK3 (human) (UniProt Q9H422)
# Sequence (Q9H422 whole entry, looked up): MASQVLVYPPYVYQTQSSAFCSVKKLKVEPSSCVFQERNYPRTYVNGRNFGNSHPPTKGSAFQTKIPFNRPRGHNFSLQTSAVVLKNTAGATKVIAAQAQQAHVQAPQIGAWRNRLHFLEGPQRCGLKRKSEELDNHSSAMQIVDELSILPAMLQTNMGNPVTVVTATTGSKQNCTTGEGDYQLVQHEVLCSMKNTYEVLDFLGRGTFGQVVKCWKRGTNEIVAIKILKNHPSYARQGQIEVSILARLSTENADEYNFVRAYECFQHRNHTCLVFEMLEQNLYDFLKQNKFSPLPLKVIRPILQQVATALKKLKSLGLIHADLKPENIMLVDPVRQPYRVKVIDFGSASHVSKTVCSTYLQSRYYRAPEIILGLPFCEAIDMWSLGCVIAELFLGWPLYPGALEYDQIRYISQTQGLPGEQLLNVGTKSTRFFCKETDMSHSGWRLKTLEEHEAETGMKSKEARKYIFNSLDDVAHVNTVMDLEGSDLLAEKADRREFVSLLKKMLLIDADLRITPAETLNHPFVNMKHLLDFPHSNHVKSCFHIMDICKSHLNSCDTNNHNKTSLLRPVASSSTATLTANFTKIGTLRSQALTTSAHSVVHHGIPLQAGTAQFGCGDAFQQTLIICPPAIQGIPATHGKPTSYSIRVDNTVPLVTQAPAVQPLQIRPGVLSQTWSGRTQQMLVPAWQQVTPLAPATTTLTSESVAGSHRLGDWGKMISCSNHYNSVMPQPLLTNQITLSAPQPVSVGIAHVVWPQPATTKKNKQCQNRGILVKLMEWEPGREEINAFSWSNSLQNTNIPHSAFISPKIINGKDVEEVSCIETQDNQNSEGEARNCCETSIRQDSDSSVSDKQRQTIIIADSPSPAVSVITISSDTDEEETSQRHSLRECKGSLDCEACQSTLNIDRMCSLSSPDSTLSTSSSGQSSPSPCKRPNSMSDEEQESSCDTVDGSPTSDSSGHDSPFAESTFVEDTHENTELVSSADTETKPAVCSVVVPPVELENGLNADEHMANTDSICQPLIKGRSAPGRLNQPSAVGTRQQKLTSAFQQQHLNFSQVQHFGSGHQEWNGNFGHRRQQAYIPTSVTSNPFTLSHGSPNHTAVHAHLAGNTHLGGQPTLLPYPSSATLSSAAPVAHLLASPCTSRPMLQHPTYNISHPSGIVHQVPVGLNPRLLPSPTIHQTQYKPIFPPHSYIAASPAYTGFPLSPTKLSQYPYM
# Assay Name: radiometric filter-binding kinase assay, Kinase HotSpot
# Measurement Setup: compound 0.5 µM; ATP 10 µM
State the value, then name its unit.

Form field residual activity, entry `Cc1nc2cc3nc(-c4cccs4)cnc3cc2n1C` : 101%

Please fill in: residual activity reported for `Cn1sc(=O)n(Cc2ccccc2)c1=O` = 94.9%

Entry `COc1cc2ncnc(N3CCN(C(=O)Nc4ccc(Oc5ccccc5)cc4)CC3)c2cc1OC` , residual activity reported as 87.4%

The molecule identified as `COc1ccc(CNC(=O)Nc2ncc([N+](=O)[O-])s2)cc1` registered its residual activity at 91.9%

* * *

# Measured Target: PTK2 (human) (UniProt Q05397)
# Sequence (Q05397 whole entry, looked up): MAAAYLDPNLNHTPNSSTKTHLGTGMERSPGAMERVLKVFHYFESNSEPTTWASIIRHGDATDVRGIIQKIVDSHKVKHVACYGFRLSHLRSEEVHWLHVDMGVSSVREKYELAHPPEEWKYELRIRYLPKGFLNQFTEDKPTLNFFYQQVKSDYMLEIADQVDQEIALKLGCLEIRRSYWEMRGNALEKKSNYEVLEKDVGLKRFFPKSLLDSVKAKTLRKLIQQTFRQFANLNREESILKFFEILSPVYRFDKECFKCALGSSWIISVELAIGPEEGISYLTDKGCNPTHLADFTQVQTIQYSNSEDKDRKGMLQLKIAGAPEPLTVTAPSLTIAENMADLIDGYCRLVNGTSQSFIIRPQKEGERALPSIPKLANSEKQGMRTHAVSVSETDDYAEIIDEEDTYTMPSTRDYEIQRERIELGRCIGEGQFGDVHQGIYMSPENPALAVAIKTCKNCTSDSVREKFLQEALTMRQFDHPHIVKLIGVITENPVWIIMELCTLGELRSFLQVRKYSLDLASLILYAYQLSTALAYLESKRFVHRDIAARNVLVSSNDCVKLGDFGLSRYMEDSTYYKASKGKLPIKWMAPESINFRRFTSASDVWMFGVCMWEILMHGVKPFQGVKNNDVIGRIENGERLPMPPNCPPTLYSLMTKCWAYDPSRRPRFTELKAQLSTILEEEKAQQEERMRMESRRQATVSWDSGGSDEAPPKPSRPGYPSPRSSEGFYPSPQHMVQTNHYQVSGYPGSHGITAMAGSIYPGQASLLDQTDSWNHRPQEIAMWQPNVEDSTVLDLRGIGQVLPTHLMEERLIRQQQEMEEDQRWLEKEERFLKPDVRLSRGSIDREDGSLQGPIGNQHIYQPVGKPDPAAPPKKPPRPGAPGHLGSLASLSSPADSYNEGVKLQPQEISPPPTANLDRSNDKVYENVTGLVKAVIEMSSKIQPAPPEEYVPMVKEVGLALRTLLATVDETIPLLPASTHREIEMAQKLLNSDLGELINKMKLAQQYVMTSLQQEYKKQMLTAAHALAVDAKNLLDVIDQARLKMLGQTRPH
# Assay Name: radiometric filter-binding kinase assay, Kinase HotSpot
# Measurement Setup: compound 0.5 µM; ATP 10 µM
Each entry gets false (0) if its residual activity stays under 90%, and true (1) if its residual activity is 90% or above.

Task: Determine whether this compound has residual activity no lower than 90%: `O=C1NC(=O)C(c2c[nH]c3ccccc23)=C1c1c[nH]c2ccccc12`
Output: true (1)

Task: // inclusive: residual activity at least 90%? input: `O=C1Nc2ccccc2/C1=C1\Nc2ccccc2\C1=N/O`
Output: false (0)

Task: Determine whether this compound has residual activity no lower than 90%: `Cn1cnc2cc3c(Nc4cccc(Br)c4)ncnc3cc21`
Output: true (1)

Task: Please indicate if the recorded residual activity for `Cn1nc2c3c(cccc31)C(=O)c1ccccc1-2` meets or exceeds 90%.
Output: true (1)

Task: Please tell me: is the compound `CC(C)[C@H](CO)Nc1nc(Nc2cc(N)cc(Cl)c2)c2ncn(C(C)C)c2n1` at or over 90% in terms of residual activity?
Output: false (0)

Task: Does the compound `COc1ccc(OC)c2c(=S)c3ccccc3[nH]c12` have recorded residual activity that is 90% or more?
Output: true (1)

Task: Reported residual activity at or above 90%? `Nc1nccc(-c2c(-c3ccc(F)cc3)ncn2C2CCNCC2)n1`
Output: true (1)

Task: Is reported residual activity greater than or equal to 90% here: `CC(=O)O/N=C1\C(=C2\C(=O)Nc3cc(Br)ccc32)Nc2ccccc21`
Output: true (1)

Task: Does the compound `O=C(Nc1cccc(Nc2cc(Nc3cccc(C(F)(F)F)c3)ncn2)c1)C1CC1` have recorded residual activity that is 90% or more?
Output: true (1)

Task: Confirm if residual activity reported for the compound `O=C(O)/C=C/c1cc(Br)c(Br)c(Br)c1Br` is 90% or above.
Output: true (1)

Task: Can `Cn1sc(=O)n(Cc2ccccc2)c1=O` be said to have residual activity at or above 90%?
Output: true (1)

Task: Please check the record `CCn1cnc2c(Nc3cccc(Cl)c3)nc(N[C@@H]3CCCC[C@@H]3N)nc21` and state if its residual activity is at or above 90%.
Output: false (0)

Task: Could you verify whether the entry `O=C1Cc2c([nH]c3ccc(Br)cc23)-c2ccccc2N1` shows residual activity of no less than 90%?
Output: true (1)

Task: Is residual activity at least 90%? Consider `CCN(CC)CCCCN1c2ccccc2Oc2ccc(Cl)cc21`
Output: true (1)
